Some molecules, each annotated with its measured combination Emax.
System: PSN1 (Pancreatic Carcinoma)
experiment: combination Emax (second highest fraction inhibited in the dose matrix, 72 h); higher = more inhibition; extreme values may be limits of the assay
Write the number on its own, no unit after it.

Study these solved cases before continuing.
molecule | combination Emax
O=C(c1cc(Cc2n[nH]c(=O)c3ccccc23)ccc1F)N1CCN(C(=O)C2CC2)CC1 [Olaparib] + CC1(C)CCC(CN2CCN(c3ccc(C(=O)NS(=O)(=O)c4ccc(NCC5CCOCC5)c([N+](=O)[O-])c4)c(Oc4cnc5[nH]ccc5c4)c3)CC2)=C(c2ccc(Cl)cc2)C1 [Venetoclax] (first compound max 10 µM, 7x7, partner max 1 µM) | 0.192
COc1nnc2ccc(N3CCC(c4ccc(OCCN5CCN(C)C(=O)[C@H]5C)cc4)CC3)nn12 [AZD5153] + C=CCn1c(=O)c2cnc(Nc3ccc(N4CCN(C)CC4)cc3)nc2n1-c1cccc(C(C)(C)O)n1 [AZD1775] (first compound max 1 µM, partner max 1 µM) | 0.54

Next molecule, please.
Can you share its combination Emax? I mean this molecule: C[C@@H](Oc1cc(-c2cnn(C3CCNCC3)c2)cnc1N)c1c(Cl)ccc(F)c1Cl [Crizotinib] + Cn1cnc2c(F)c(Nc3ccc(Br)cc3Cl)c(C(=O)NOCCO)cc21 [Selumetinib] (first compound max 10 µM, 7x7, partner max 10 µM)
0.963

###

Each entry below lists one item and its recorded Bliss excess value.
Tested on: RKN (Other Solid Carcinomas);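 further: after 72 h of two-drug dosing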
experiment: Bliss excess, mean over the matrix (fraction); higher = more synergy
// no unit string in output, number only

molecule | assayMetric | reportedValue
C[C@@H]1COCCN1c1cc(C2([S@](C)(=N)=O)CC2)nc(-c2ccnc3[nH]ccc23)n1 [AZD6738] + C1CC(C1)(C(=O)[O-])C(=O)[O-].N.N.[Pt+2] [Carboplatin] (first compound max 10 µM, 7x7, partner max 10 µM) | Bliss excess | -0.0615
CN(CCO)CC[C@H](CSc1ccccc1)Nc1ccc(S(=O)(=O)NC(=O)c2ccc(N3CCC([C@@H](O)c4ccccc4-c4ccc(Cl)cc4)CC3)cc2)cc1S(=O)(=O)C(F)(F)F [AZD4320] + CCN(CCO)CCCOc1ccc2c(Nc3cc(CC(=O)Nc4cccc(F)c4)[nH]n3)ncnc2c1 [AZD2811] (first compound max 1 µM, 7x7, partner max 1 µM) | Bliss excess | -0.0481

Requested read-out: Bliss excess. Entry: Cn1cnc2c(F)c(Nc3ccc(Br)cc3Cl)c(C(=O)NOCCO)cc21 [Selumetinib] + C[C@@H]1COCCN1C2=NC(=NC(=C2)C3(CC3)[S@](=N)(=O)C)C4=C5C=CNC5=NC=C4 [AZD6738] (first compound max 10 µM, 7x7, partner max 10 µM)
0.0584

###

# reported combination Emax; entries follow
Tested on: PANC-03-27 (Pancreatic Carcinoma)
experiment: combination Emax (second highest fraction inhibited in the dose matrix, 72 h); higher = more inhibition; extreme values may be limits of the assay

Below: 3 compounds and their reported combination Emax.
compound | combination Emax
CC1(C)CCC(CN2CCN(c3ccc(C(=O)NS(=O)(=O)c4ccc(NCC5CCOCC5)c([N+](=O)[O-])c4)c(Oc4cnc5[nH]ccc5c4)c3)CC2)=C(c2ccc(Cl)cc2)C1 [Venetoclax] + C1CN(CCC1(C(=O)N[C@@H](CCO)C2=CC=C(C=C2)Cl)N)C3=NC=NC4=C3C=CN4 [Capivasertib] (first compound max 1 µM, 7x7, partner max 3 µM) | 0.626
Cc1c2c(nn1C)CSCc1cc(n(C)n1)CSc1cc(c3ccccc3c1)OCCCc1c(C(=O)O)n(C)c3c-2c(Cl)ccc13 [AZD5991] + C1CN(CCC1(C(=O)N[C@@H](CCO)C2=CC=C(C=C2)Cl)N)C3=NC=NC4=C3C=CN4 [Capivasertib] (first compound max 1 µM, 7x7, partner max 3 µM) | 0.167
N#Cc1cnc(Nc2cc(NC[C@H]3CNCCO3)c(C(F)(F)F)cn2)cn1 [SRA737] + Nc1ccn([C@@H]2O[C@H](CO)[C@@H](O)C2(F)F)c(=O)n1 [Gemcitabine] (first compound max 10 µM, 7x7, partner max 0.3 µM) | 0.729

Let us move to another entry and its combination Emax.
Tell me the measured combination Emax of Cc1cc2ncnn2cc1Nc1ncc2c(n1)n(C1CCOCC1)c(=O)n2C [AZD7648] + C[C@@H]1COCCN1C2=NC(=NC(=C2)C3(CC3)[S@](=N)(=O)C)C4=C5C=CNC5=NC=C4 [AZD6738] (first compound max 10 µM, 7x7, partner max 10 µM) , please.
0.824
